tested_target: Voltage-dependent calcium channel gamma-2 subunit (Mus musculus) + Glutamate receptor 2 (Rattus norvegicus) (UniProt O88602+P19491)
Sequence (O88602 whole entry, looked up): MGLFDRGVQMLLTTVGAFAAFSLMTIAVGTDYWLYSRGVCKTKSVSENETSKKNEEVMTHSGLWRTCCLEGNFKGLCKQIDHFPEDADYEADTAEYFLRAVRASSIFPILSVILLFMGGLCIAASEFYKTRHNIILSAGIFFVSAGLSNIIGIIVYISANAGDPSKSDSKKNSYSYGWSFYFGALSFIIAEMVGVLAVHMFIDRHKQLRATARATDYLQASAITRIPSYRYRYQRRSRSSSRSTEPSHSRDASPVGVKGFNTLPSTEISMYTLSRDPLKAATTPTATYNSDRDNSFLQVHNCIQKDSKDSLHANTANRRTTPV
Sequence (P19491 whole entry, looked up): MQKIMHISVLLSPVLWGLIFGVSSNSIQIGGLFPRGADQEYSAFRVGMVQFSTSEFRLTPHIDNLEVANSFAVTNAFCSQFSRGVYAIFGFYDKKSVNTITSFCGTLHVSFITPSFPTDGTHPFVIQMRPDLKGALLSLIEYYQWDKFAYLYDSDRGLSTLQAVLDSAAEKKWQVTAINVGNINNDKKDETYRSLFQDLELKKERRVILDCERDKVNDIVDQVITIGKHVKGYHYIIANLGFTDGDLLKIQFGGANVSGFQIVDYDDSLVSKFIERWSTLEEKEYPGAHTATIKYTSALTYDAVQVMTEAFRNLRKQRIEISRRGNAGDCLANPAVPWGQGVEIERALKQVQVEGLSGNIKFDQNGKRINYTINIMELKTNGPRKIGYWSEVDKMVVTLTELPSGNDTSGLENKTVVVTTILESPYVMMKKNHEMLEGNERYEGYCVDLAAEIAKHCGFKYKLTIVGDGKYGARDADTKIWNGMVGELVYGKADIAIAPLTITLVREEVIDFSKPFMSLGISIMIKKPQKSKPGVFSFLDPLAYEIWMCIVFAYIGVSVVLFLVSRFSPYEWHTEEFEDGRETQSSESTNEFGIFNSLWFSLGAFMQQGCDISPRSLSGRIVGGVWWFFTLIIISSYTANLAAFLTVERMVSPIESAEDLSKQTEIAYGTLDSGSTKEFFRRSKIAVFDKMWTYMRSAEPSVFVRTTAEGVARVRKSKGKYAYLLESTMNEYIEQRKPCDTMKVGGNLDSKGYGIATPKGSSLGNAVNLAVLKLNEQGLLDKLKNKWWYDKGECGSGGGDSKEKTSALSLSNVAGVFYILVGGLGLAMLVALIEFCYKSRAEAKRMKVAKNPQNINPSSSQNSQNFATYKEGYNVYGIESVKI
experimental_protocol: modulators of GluA2-stargazin AMPA receptor complexes, primary screen, cell-based, membrane potential dye (AID 1259245)
particulars: HEK293 GluA2+stargazin, membrane potential dye (FDSS), glutamate EC50, at 30 µM, hits were called plate by plate, in both directions
Out of some 40,000 compounds screened, about 1,400 (3.5%) were called active. This is one part of a sample in which actives are shown more often than they occur.
Task for the reader: assign each of the following compounds its reported glutamate response, % of max.
Give bare numbers, in %.

Consider the following illustrative entries.
compound | glutamate response, % of max (%)
Cc1cc(NC(=O)C(C)Oc2ccccc2)n(-c2nc3c(cnn3-c3ccc(C)c(C)c3)c(=O)[nH]2)n1 (centres undefined) | 19.4
O=S(=O)(CCCOc1ccc(F)cc1)NCCCc1ccccc1 | 50.6
CCOCCn1c(=O)c2c(nc3n2CCCN3c2ccc(Br)cc2)n(C)c1=O | 46.2
COc1cccc2sc(N(Cc3ccco3)C(=O)CSCc3ccccc3)nc12 | 31.9
Cc1cc(C)c2c(n1)nn1c(-n3ccnc3)cc(C)nc21 | 43.8
CC(=O)Nc1cccc(NC(=O)C(=O)NCC2CCN(Cc3ccco3)CC2)c1 | 50.2
CC1CC(=O)Nc2c1c(NC(=O)c1ccc3c(c1)OCO3)nn2C (centres undefined) | 23.6
CCOC(=O)c1cn(CC(=O)Nc2ccc(C)cc2Cl)c2nc(C)ccc2c1=O | 31.9

Value sought for every listed compound: glutamate response, % of max.
1. CCn1ccnc1N1CCN(C(=O)CCS(=O)(=O)c2ccccc2)CC1
2. CC(C)Sc1ccc(C(=O)Nc2nc(-c3ccccn3)cs2)cc1

-- reply
11.8
-1.73

Value sought for every listed compound: glutamate response, % of max.
1. COc1ccccc1CCNC(=O)C(=O)Nc1cc([N+](=O)[O-])ccc1C
2. Cc1ccc([N+](=O)[O-])cc1NC(=O)C(=O)NCC(c1cccs1)N(C)C (centres undefined)
3. COc1cc(Cl)ccc1C(=O)NC1(c2nc(-c3ccsc3)no2)CCCCC1
4. O=C(/C=C/c1cccs1)NCC1CCN(C(=O)COc2ccccc2)CC1

-- reply
1: 47.7; 2: 57.6; 3: 37.6; 4: 42

---

tested_target: Voltage-dependent calcium channel gamma-2 subunit (Mus musculus) + Glutamate receptor 2 (Rattus norvegicus) (UniProt O88602+P19491)
experimental_protocol: modulators of GluA2-stargazin AMPA receptor complexes, primary screen, cell-based, membrane potential dye (AID 1259245)
particulars: HEK293 GluA2+stargazin, membrane potential dye (FDSS), glutamate EC50, at 30 µM, hits were called plate by plate, in both directions
Hit rate of the full screen: of about 40,000 compounds, about 1,400 (3.5%) were called active. What follows is part of a selection rich in actives, with near analogues and random picks from the rest.
Task for the reader: assign each of the following molecules its reported glutamate response, % of max.

Consider the following illustrative entries.
molecule | glutamate response, % of max
O=C(Nc1onc2c1CCCC2)c1nc(-c2cnccn2)no1 | 29.1% (inactive)
O=C(CCSc1ccccc1)NCC1(c2cccs2)CCOCC1 | 28% (inactive)

Value sought for every listed molecule: glutamate response, % of max.
1. O=C(NC(=S)Nc1ccc(S(=O)(=O)N2CCOCC2)cc1)c1sc2ccccc2c1Cl
2. Cc1nc(-c2ccccc2)sc1C(=O)NCCOc1ccc2nnc(-c3ccccc3)n2n1

-- reply
1: 29.8% (inactive); 2: 37.1% (inactive)

---

Task for the reader: assign each of the following molecules its reported glutamate slope, % of max.
tested_target: Voltage-dependent calcium channel gamma-2 subunit (Mus musculus) + Glutamate receptor 2 (Rattus norvegicus) (UniProt O88602+P19491)
experimental_protocol: modulators of GluA2-stargazin AMPA receptor complexes, primary screen, cell-based, membrane potential dye (AID 1259245)
particulars: HEK293 GluA2+stargazin, membrane potential dye (FDSS), glutamate EC50, at 30 µM, hits were called plate by plate, in both directions; measured here: glutamate response slope, % max
In all, about 40,000 compounds went through this assay and about 1,400 (3.5%) were called active. The list comes from a sample in which actives are over-represented; it also holds close analogues and randomly drawn compounds.
One number for each entry, in %.

molecule | glutamate slope, % of max [%]
CC(O)(CNC(=O)/C=C/c1ccccc1)c1ccccc1 (stereo not given) | 61.2
COc1ccc(CNC(=O)N2CCC(c3cccs3)CC2)cc1 | 59.7
COC(=O)c1ccc(CSc2cc(N3CCN(c4ccccc4F)CC3)ncn2)o1 | 59.5
COc1cccc(CNC(=O)C(=O)Nc2cc([N+](=O)[O-])ccc2C)c1 | 61.5

Lab note: next molecule to report on.
-- ask Which glutamate slope, % of max value belongs to CC(Oc1ccccc1)C(=O)N1CCN(c2ncnc3c2nnn3-c2ccc(Cl)cc2)CC1 (stereo not given) ?
-- reply 58.4

---

Task for the reader: assign each of the following molecules its reported compound max-min signal.
tested_target: Voltage-dependent calcium channel gamma-2 subunit (Mus musculus) + Glutamate receptor 2 (Rattus norvegicus) (UniProt O88602+P19491)
experimental_protocol: modulators of GluA2-stargazin AMPA receptor complexes, primary screen, cell-based, membrane potential dye (AID 1259245)
particulars: HEK293 GluA2+stargazin, membrane potential dye (FDSS), glutamate EC50, at 30 µM, hits were called plate by plate, in both directions; compound-alone response (agonism)
About 1,400 (3.5%) of roughly 40,000 compounds were called active. This is one part of a sample in which actives are shown more often than they occur.
Numbers only.

Consider the following illustrative entries.
cpd_smiles | compound max-min signal
O=[N+]([O-])c1cccc(CSc2nnc(-c3ccncc3)o2)c1 | 0.0611
COc1cccc(-n2nnc3c(N4CCN(C(=O)c5c(OC)cccc5OC)CC4)ncnc32)c1 | 0.0804
CN1CCN(c2ccc(-c3cccc(NC(=O)COc4ccc(F)cc4F)c3)nn2)CC1 | 0.0723

Lab note: next molecule to report on.
-- ask Which compound max-min signal value belongs to CCOc1ccc(-c2cc(=O)n(CCCC(=O)Nc3cc(C)ns3)cn2)cc1 ?
-- reply 0.074

---

Task for the reader: assign each of the following molecules its reported glutamate response, % of max.
tested_target: Voltage-dependent calcium channel gamma-2 subunit (Mus musculus) + Glutamate receptor 2 (Rattus norvegicus) (UniProt O88602+P19491)
experimental_protocol: modulators of GluA2-stargazin AMPA receptor complexes, primary screen, cell-based, membrane potential dye (AID 1259245)
particulars: HEK293 GluA2+stargazin, membrane potential dye (FDSS), glutamate EC50, at 30 µM, hits were called plate by plate, in both directions
Screen size: about 40,000 compounds; about 1,400 (3.5%) were called active. For the sample, actives were picked, then their nearest neighbours and some compounds at random.
Answers are plain numbers, in %.

Consider the following illustrative entries.
cpd_smiles | numeric_value
Cc1ccc(-n2ncc3c(=O)n(CC(=O)N4CCOCC4)cnc32)cc1C | 29.7
Cc1nc(NC(=O)c2ccc3c(c2)CCCC3)sc1C | 29.7

-- ask Which glutamate response, % of max value belongs to COc1ccccc1NC(=O)c1csc(NS(=O)(=O)c2ccccc2)n1 ?
-- reply 30.6

---

tested_target: Voltage-dependent calcium channel gamma-2 subunit (Mus musculus) + Glutamate receptor 2 (Rattus norvegicus) (UniProt O88602+P19491)
experimental_protocol: modulators of GluA2-stargazin AMPA receptor complexes, primary screen, cell-based, membrane potential dye (AID 1259245)
particulars: HEK293 GluA2+stargazin, membrane potential dye (FDSS), glutamate EC50, at 30 µM, hits were called plate by plate, in both directions; measured here: glutamate response slope, % max
About 1,400 (3.5%) of roughly 40,000 compounds were called active. The entries come from a sample that favours actives as a whole.
endpoint_label: glutamate slope, % of max (%)
Answers are plain numbers, in %.

Consider the following illustrative entries.
molecule | endpoint_label | numeric_value
Cc1ccc(-n2ncc3c(=O)n(CC(=O)N4CCOCC4)cnc32)cc1C | glutamate slope, % of max | 52.9
Cc1ccc2nc(NC(=O)c3ccno3)sc2c1 | glutamate slope, % of max | 62.5
COc1cc(C(=O)Nc2nnc(-c3ccc(SC)cc3)o2)cc(OC)c1OC | glutamate slope, % of max | 51.3
O=C1/C(=C/c2cccnc2)SC(=S)N1c1ccc2c(c1)OCCO2 | glutamate slope, % of max | 65.3

Value sought for every listed molecule: glutamate slope, % of max.
1. CCOc1ccc(S(=O)(=O)NCc2ccc3c(c2)OCO3)cc1OCC
2. O=C(NCCCN1CCCC1=O)C(=O)Nc1c2c(nn1-c1cccc(Cl)c1)CSC2
3. Cc1cccc(Cn2c(=O)c3c(nc4n(-c5ccccc5O)c(C)c(C)n34)n(C)c2=O)c1
4. O=C(Nc1ccc2c(c1)OCO2)c1ccc(S(=O)(=O)N2CCCCCC2)cc1
5. COc1cc(NS(=O)(=O)c2ccc(NC(=O)c3ccc(S(=O)(=O)N4CCOCC4)cc3)cc2)ncn1
6. Cc1cc(NC(=O)c2ccc3c(c2)OCO3)n(-c2nc3c(cnn3-c3cccc(Cl)c3)c(=O)[nH]2)n1
7. Cc1cc(C)c2c(n1)nn1c(NCC(C)C)cc(C)nc21

-- reply
[55.6, 47, 16.2, 60.4, 72.4, 36, 52.5]

Value sought for every listed molecule: glutamate slope, % of max.
1. Cc1ccc(C(=O)CSc2nccn(-c3ccc(Cl)cc3)c2=O)c(C)c1
2. CCOc1ccc(CC(=O)Nc2nn(C)c3c2C(C)CC(=O)N3)cc1 (configuration not stated)
3. COCCNC(=O)c1ccc(Oc2c(C)oc3cc(OC)ccc3c2=O)cc1
4. Cc1cnc2c(c1NCCc1ccc(S(N)(=O)=O)cc1)c(=O)n(C)c(=O)n2C
5. Cc1cc(C)c2c(n1)nn1c(-n3ccnc3)cc(C)nc21

-- reply
1: 43.4; 2: 64.1; 3: 21.9; 4: 50; 5: 65.7

Value sought for every listed molecule: glutamate slope, % of max.
1. COC(=O)c1c(NC(=O)CC2NCCNC2=O)sc(C)c1C (configuration not stated)
2. CC1CCN(C(=O)C(=O)Nc2c3c(nn2-c2ccc(F)cc2)CSC3)CC1

-- reply
1. 55.8
2. 44.2

Value sought for every listed molecule: glutamate slope, % of max.
1. Cc1c(-c2ccccc2)c(=O)oc2c3c(ccc12)OCN(Cc1cccnc1)C3
2. COc1cc([N+](=O)[O-])ccc1NC(=O)c1ccccc1NS(=O)(=O)c1ccccc1

-- reply
35
34.2

Value sought for every listed molecule: glutamate slope, % of max.
1. CCOc1ccc2nc(NC(=O)c3ccc(S(=O)(=O)N(C)C)o3)sc2c1
2. CCOc1ccc2nc(NC(=O)c3ccc(S(=O)(=O)Nc4cccnc4)o3)sc2c1

-- reply
54.4
55.6
